From: PubChem BioAssay AID1259407

Test system: CCRIS mutagenicity, Ames/micronucleus/aberration tests
assayExplanation: CCRIS mutagenicity studies
assayConditions: Test System: AMES SALMONELLA TYPHIMURIUM; Strain/Indicator: TA98; Metabolic Activation: NONE; Method: PREINCUBATION
The source made the active and inactive calls. The rule behind the calls is not given here.
Permitted responses: active, inactive

Dear colleague, could you share the recorded outcome for CC(O)C#N (centres undefined) when you have a moment?
inactive

// outcome(item) with item = CC(=O)CC(=O)Nc1ccccc1
inactive

State the result this test recorded for S=C=Nc1cccc2ccccc12 .
inactive

Fill in: this test's call for Nc1ccc(-c2ccc([N+](=O)[O-])cc2N)c([N+](=O)[O-])c1 is ___
active

For Nc1cccc2nc3c(N)cccc3nc12 , what call appears in the results of this test?
active

Any idea what this test logged for Cc1ccc(Cl)cc1[N+](=O)[O-] ?
inactive

Give the logged outcome of this assay for the following compound: Cc1c2ccccc2c(C)c2c3c(ccc12)C(=O)C(=O)C=C3
inactive

Kindly provide the recorded test outcome for the following compound: Cc1c(Br)c(Br)c(Br)c(Br)c1Br
inactive

Assay result, entry OCC(CBr)(CBr)CBr — outcome?
inactive

Recorded call for COc1cc(C)cc2c(O)c(-c3c(C)cc4c(O)ccc(O)c4c3OC)cc(O)c12 ?
inactive

Outcome? COc1cccc2c1C(=O)c1c(O)c3c(c(O)c1C2=O)C[C@@](O)(C(=O)CO)C[C@@H]3O[C@H]1C[C@H](N)[C@H](OC)[C@H](C)O1
active

For this compound, state the assay outcome: Cc1ccccc1C(N)=O
inactive

Could you check what this test reported for C#C[C@]1(O)CC[C@H]2[C@@H]3CCc4cc(O)ccc4[C@H]3CC[C@@]21C ?
inactive

# lookup: test call for Cc1c2ccccc2cc2c3c(ccc12)C(O)C(O)[C@@H]1O[C@@H]31 (some centres undefined)
active

Look up the recorded call for O.[Cu].[Cu] in this test.
inactive

Please state the recorded outcome for this compound: O
inactive

Which outcome did this test record for the compound CCOC(=O)[C@H]1O[C@@H]1C(=O)N[C@@H](CC(C)C)C(=O)NCCC(C)C ?
inactive

Write down the call the test reported for this compound. Item: Cc1cc2c(C)c3ccccc3nc2c2ccccc12
inactive

Assay result, entry O=C(CBr)c1ccc(Br)cc1 — outcome?
inactive

Status in this test for Clc1c(Cl)c(Br)c2c(c1Cl)-c1nc-2nc2[n-]c(nc3nc(nc4[n-]c(n1)c1c(Cl)c(Br)c(Cl)c(Br)c41)-c1c(Cl)c(Cl)c(Br)c(Cl)c1-3)c1c(Br)c(Cl)c(Br)c(Cl)c21.[Cu+2] ?
inactive

What did this assay record as the result for CC1=CC(C)(C)Nc2ccccc21 ?
inactive

Answer briefly: the call reported for CCCCC1C(=O)N(c2ccccc2)N(c2ccc(O)cc2)C1=O (centres undefined) in this assay.
inactive

Record request — test call for OC1c2ccc3c(c2C2OC2C1O)-c1cccc2cccc-3c12 (centres undefined)
active

Answer briefly: the call reported for CCO in this assay.
inactive
